# assayInfo: Half life in po dosed rat
# Format: ADME, organism-based
# experimentalParameters: in vivo
reportedMetric: half-life

Quick one: half-life for `NC/C=C(/F)COc1ccc(C(=O)NC2CCCCC2)cc1` ?
1.62 h

---

Could you please report measured pIC50 for the items listed next?
# targetDesc: UniProt O70423
# Sequence (O70423 whole entry): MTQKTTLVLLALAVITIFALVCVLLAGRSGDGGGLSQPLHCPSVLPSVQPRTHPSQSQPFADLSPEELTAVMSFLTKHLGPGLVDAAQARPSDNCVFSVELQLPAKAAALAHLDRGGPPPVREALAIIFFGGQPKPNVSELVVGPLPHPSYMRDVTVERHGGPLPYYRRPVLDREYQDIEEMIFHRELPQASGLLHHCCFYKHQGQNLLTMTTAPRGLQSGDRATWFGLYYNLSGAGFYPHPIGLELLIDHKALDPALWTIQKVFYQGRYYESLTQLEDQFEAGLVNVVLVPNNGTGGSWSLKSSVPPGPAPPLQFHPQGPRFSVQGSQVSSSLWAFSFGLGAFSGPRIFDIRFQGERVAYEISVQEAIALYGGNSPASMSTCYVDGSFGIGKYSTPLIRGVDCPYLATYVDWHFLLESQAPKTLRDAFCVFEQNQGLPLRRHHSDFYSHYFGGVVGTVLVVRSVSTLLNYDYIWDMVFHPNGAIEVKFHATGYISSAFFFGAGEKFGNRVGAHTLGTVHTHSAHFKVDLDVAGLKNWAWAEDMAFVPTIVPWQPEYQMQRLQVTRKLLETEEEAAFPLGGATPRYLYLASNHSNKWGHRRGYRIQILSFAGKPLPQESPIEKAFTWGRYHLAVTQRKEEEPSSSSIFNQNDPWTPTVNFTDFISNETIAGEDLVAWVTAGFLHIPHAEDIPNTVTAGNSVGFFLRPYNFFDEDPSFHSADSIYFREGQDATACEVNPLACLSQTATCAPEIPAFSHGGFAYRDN
# assayInfo: Inhibition of SSAO/VAP1 in mouse adipocytes measuring H2O2 production by Resorufin/Amplex Red assay
pIC50 (log units): -log10 of the concentration in mol/L.

So what's the measured pIC50 for this one? NC/C(=C/F)CCc1ccc(F)cc1 [MOFEGILINE]
8.00

Try this molecule too: `NC/C=C(/F)COc1ccc(C(=O)NC2CCCCC2)cc1`
6.82

Moving on to the next molecule: `NC/C=C(/F)COc1ccc(C(=O)NC2CCCC2)cc1`
6.28

Would you kindly repeat that for `C[C@H](NC(=O)c1ccc(OC/C(F)=C\CN)cc1)c1ccccc1` ?
6.89

---

# targetDesc: recombinant human DAO (diamine oxidase) (Homo sapiens, UniProt P19801)
# assayInfo: Inhibition of human DAO measuring H2O2 production by Resorufin/Amplex Red assay
Field: pIC50. Provide a value for each of the compounds that follow.
Entry type: numeric. Quantity: pIC50, the -log10 of concentration in molar units.

Which value of pIC50 has been reported for `C[C@@H](NC(=O)c1ccc(OC/C(F)=C\CN)cc1)c1ccccc1` in the records?
5.61

Entry to check: `NC/C=C(/F)COc1ccc(C(=O)NC2CCCCC2)cc1`
4.58

Now the same for `C[C@H](NC(=O)c1ccc(OC/C(F)=C\CN)cc1)c1ccccc1`
4.13

---

# targetDesc: Amine oxidase [flavin-containing] A (Homo sapiens)
# Sequence (P21397 whole entry): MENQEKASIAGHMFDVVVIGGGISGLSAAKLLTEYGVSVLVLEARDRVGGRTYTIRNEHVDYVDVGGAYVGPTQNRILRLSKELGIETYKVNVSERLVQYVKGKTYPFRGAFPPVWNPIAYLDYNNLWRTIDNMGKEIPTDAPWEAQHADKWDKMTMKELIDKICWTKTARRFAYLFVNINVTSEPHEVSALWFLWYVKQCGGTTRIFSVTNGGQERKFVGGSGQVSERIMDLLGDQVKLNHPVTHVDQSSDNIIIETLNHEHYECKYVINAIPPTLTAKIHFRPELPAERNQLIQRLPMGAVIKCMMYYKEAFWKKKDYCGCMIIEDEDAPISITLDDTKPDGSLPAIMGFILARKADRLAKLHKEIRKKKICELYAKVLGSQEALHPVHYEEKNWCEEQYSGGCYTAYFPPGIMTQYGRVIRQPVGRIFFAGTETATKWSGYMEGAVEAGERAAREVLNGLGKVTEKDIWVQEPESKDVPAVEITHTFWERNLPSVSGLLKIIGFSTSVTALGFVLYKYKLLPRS
# assayInfo: Inhibition of human recombinant MAO-A assessed as H2O2 production by Resorufin/Amplex Red assay
pIC50: −log10 of the molar value.
reportedMetric: pIC50

Requested field: pIC50. Item: `CC(C)(C)c1ccc(OC/C(F)=C\CN)cc1`
< 4.52

Entry NC/C(=C/F)CCc1ccc(F)cc1 [MOFEGILINE] please
5.75

For `NC/C=C(/F)COc1ccc(C(=O)NC2CCCC2)cc1` then?
< 4.52

Same again, this time with `NC/C=C(/F)COc1cccc(C(F)(F)F)c1`
< 5.00

Moving on to `NC/C=C(/F)COc1ccccc1`
< 4.52

What would you report for `C[C@@H](NC(=O)c1ccc(OC/C(F)=C\CN)cc1)c1ccccc1` ?
< 4.52

Repeat for the following molecule: `NC/C=C(/F)COc1ccc(C(=O)NC2CCCCC2)cc1`
< 4.52

Now consider `C[C@H](NC(=O)c1ccc(OC/C(F)=C\CN)cc1)c1ccccc1` .
< 4.52

Field entry: `NC/C=C(/F)COc1ccc(C(N)=O)cc1`
< 4.52

---

# targetDesc: Amine oxidase [copper-containing] 3 (Homo sapiens)
# assayInfo: Inhibition of human SSAO/VAP1 measuring H2O2 production by Kitz and Wilson plot analysis
reportedMetric: pKi
Remember, pKi is on a log scale: it is -log10 of the molar concentration.

# input molecule: `NC/C=C(/F)COc1ccc(C(=O)NC2CCCCC2)cc1` ; wanted: its pKi
5.79

Next entry: NC/C(=C/F)CCc1ccc(F)cc1 [MOFEGILINE]
5.79

---

# targetDesc: UniProt Q16853
# assayInfo: Inhibition of human recombinant SSAO/VAP1 assessed as H2O2 production by Resorufin/Amplex Red assay
reportedMetric: log10 of IC50 (log10 of the value in µM)
# log10 transformed; quantity=IC50; unit=µM

Given the molecule `NC/C=C(/F)COc1ccc(C(=O)NC2CCCCC2)cc1` , what is its reported log10 of IC50?
-2.00

Now give it for `NC/C=C(/F)COc1ccc(F)c(F)c1` too.
-0.72

Next entry: CC(NC(=O)c1ccc(OC/C(F)=C\CN)cc1)c1ccccc1 (racemic)
-1.40

// same read-out, input: `NC/C=C(/F)COc1ccc(C(=O)NC2CCCC2)cc1`
-1.70

Ok, now `COc1ccc(OC/C(F)=C\CN)cc1`
-0.80

---

# targetDesc: Amine oxidase [copper-containing] 3 (Homo sapiens)
# Sequence (Q16853 whole entry): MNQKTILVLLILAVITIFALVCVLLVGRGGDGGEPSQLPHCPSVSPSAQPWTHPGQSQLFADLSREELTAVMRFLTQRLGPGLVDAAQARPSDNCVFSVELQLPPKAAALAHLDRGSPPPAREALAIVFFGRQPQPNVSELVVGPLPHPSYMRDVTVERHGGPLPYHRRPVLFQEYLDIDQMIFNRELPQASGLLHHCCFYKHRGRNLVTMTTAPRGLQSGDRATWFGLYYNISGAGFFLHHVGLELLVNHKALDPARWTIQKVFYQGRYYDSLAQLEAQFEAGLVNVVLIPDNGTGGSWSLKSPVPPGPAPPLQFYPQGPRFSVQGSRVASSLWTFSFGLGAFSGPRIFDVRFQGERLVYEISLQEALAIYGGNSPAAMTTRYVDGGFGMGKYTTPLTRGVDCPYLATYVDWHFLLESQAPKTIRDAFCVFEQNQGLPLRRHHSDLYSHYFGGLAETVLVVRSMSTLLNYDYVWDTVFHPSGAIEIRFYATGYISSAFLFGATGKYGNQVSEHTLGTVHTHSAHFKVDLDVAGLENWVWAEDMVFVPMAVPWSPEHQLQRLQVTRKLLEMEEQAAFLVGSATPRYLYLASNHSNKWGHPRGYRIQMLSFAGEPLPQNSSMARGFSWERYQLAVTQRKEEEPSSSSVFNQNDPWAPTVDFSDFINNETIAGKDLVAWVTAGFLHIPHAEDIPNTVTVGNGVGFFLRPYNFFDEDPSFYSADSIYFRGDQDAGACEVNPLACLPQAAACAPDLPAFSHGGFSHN
# assayInfo: Inhibition of human recombinant SSAO/VAP1 assessed as H2O2 production by Resorufin/Amplex Red assay
reportedMetric: IC50 (nM)
Give the value, in units of nM, as a plain number.

IC50 of `C[C@H](NC(=O)c1ccc(OC/C(F)=C\CN)cc1)c1ccccc1` on Amine oxidase [copper-containing] 3 (Homo sapiens)?
40

Another: `NC/C=C(/F)COc1ccc(C(N)=O)cc1`
1070

Then this compound: `NC/C=C(/F)COc1ccc([N+](=O)[O-])cc1`
70

Follow-up item: `CN(Cc1ccccc1)C(=O)c1ccc(OC/C(F)=C\CN)cc1`
260

Follow-up item: `CN(C)C(=O)c1ccc(OC/C(F)=C\CN)cc1`
370

Also, `NC/C=C(/F)COc1ccc(C(F)(F)F)cc1` please.
40

Field entry: `NC/C=C(\F)COc1ccccc1`
20000

// same read-out, input: `NC/C=C(/F)COc1ccc(C(=O)NCc2ccccc2)cc1`
80

Okay, and `NC/C=C(/F)COc1cccc(Cl)c1` ?
250

Would you kindly repeat that for `NC/C=C(/F)COc1ccc(Oc2ccccc2)cc1` ?
240

Another compound to check: `NC/C=C(/F)COc1ccc(C(=O)N2CCCC2)cc1`
140
